meta.source: patent US20230233569A1

Give IC50 for every item shown.
Tested system: KRAS G13C (Homo sapiens, UniProt P01116+P62937, G13C)
Sequence (P01116 1-169 isoform P01116-2 G13C limits assumed): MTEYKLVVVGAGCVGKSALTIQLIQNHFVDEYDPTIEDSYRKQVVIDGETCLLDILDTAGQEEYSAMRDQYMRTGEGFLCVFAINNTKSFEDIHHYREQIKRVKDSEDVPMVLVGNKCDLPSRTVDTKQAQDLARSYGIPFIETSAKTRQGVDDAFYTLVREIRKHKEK
Sequence (P62937 whole entry): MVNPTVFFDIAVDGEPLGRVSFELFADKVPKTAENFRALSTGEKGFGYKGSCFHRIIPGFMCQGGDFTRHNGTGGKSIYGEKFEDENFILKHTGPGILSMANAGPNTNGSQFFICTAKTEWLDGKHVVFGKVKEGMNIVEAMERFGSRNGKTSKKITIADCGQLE
Assay comment: Ras-Raf disruption / FRET / MOA assay (BRAF RBD)
Type: biochemical
Details: Ras-Raf disruption, with Cyclophilin A; read-out: KRAS G13C FRET data IC50

# assay system KRAS G13C (Homo sapiens, UniProt P01116+P62937, G13C): give IC50 of CCn1c(-c2cccnc2[C@H](C)OC)c2c3cc(ccc31)-c1csc(n1)C[C@H](NC(=O)[C@H](C(C)C)N(C)C(=O)N1CCC[C@H](N(C)C(=O)[C@@H]3CN3)C1)C(=O)N1CCC[C@H](N1)C(=O)OCC(C)(C)C2 (atropisomer, axis not shown)
100 to 1000 nM

State IC50 on KRAS G13C (Homo sapiens, UniProt P01116+P62937, G13C). Entry: CCn1c(-c2cccnc2[C@H](C)OC)c2c3cc(ccc31)-c1csc(n1)C[C@H](NC(=O)[C@H](C(C)C)N(C)C(=O)N1CC(N(C)C(=O)[C@H]3CN3)C1)C(=O)N1CCC[C@H](N1)C(=O)OCC(C)(C)C2
100 to 1000 nM

Report IC50 from KRAS G13C (Homo sapiens, UniProt P01116+P62937, G13C) testing of CCn1c(-c2cccnc2[C@H](C)OC)c2c3cc(ccc31)-c1cc(O)cc(c1)C[C@H](NC(=O)[C@H](C(C)C)N(C)C(=O)C1CC3(C1)CN(C(=O)[C@@H]1CN1)C3)C(=O)N1CCC[C@H](N1)C(=O)OCC(C)(C)C2
10 to 100 nM

Lab note: KRAS G13C (Homo sapiens, UniProt P01116+P62937, G13C) assay, enter IC50 for CCn1c(-c2cccnc2[C@H](C)OC)c2c3cc(ccc31)-c1cc(O)cc(c1)C[C@H](NC(=O)[C@H](C(C)C)N(C)C(=O)C1CCN(S(=O)(=O)[C@H]3CN3C)CC1)C(=O)N1CCC[C@H](N1)C(=O)OCC(C)(C)C2 (single isomer, unassigned) here
10 to 100 nM
